Target: T1, hIL2Rg-Fc (SinoBiological cat#10555) (human, UniProt P31785 23-254, limits assumed)
T1 construct: Bought Fc fusion (SinoBiological cat#10555); P31785 is printed for hCD132 in the background; also called human IL2Rg-Fc; not shown: Fc of the bought fusion protein
T1 sequence (looked up): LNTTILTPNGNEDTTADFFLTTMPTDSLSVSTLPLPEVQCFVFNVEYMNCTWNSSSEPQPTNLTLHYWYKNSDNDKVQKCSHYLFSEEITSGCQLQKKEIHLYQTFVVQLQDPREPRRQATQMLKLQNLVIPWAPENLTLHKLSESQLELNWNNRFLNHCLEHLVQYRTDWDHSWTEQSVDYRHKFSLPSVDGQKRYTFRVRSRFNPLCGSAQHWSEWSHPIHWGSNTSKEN
Assay: SPR (Biacore T200); ratio experimental/calculated Rmax
Some binders, each annotated with its measured Surface Activity.
Use % as the unit, but write only the number.

// known answers, use as guide
[[record]]
binder = "DR468(DR240-DR234) (bispecific antibody, Anti-hIL10Ra/hIL2Rg dual VHH with ASH6 handle; also called G8) QVQLQESGGGSVQAGGSLRLSCGASGYTYSSYCMGWFRQVPGKEREGVAVIDSDGSTSYADSVKGRFTISKDNGKNTLYLQMNSLKPEDTAMYYCAADLGHYRPPCGVLYLGMDYWGKGTQVTVSSGGGSQVQLQESGGGSVQAGGSLRLSCVASGYTFSSYCMGWFRQAPGKEREGVAALGGGSTYYADSVKGRFTISQDNAKNTLYLQMNSLKPEDTAMYYCAAAWVACLEFGGSWYDLARYKHWGQGTQVTVSSASHHHHHH"
experimental_value = 6

[[record]]
binder = "DR441(DR236-DR231) (bispecific antibody, Anti-hIL10Ra/hIL2Rg dual VHH with ASH6 handle; also called F1) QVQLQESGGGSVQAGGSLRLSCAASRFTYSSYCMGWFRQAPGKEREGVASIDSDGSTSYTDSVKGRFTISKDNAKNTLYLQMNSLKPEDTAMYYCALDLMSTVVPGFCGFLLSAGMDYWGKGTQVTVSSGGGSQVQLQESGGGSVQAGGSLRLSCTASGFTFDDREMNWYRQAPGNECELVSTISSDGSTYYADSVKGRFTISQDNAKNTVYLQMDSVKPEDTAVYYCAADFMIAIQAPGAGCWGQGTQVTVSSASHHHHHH"
experimental_value = 4

[[record]]
binder = "DR466(DR240-DR232) (bispecific antibody, Anti-hIL10Ra/hIL2Rg dual VHH with ASH6 handle; also called H7) QVQLQESGGGSVQAGGSLRLSCGASGYTYSSYCMGWFRQVPGKEREGVAVIDSDGSTSYADSVKGRFTISKDNGKNTLYLQMNSLKPEDTAMYYCAADLGHYRPPCGVLYLGMDYWGKGTQVTVSSGGGSQVQLQESGGGSVQAGGSLRLSCVASGYTSCMGWFRQAPGKEREAVATIYTRGRSIYYADSVKGRFTISQDNAKNTLYLQMNSLKPEDIAMYSCAAGGYSWSAGCEFNYWGQGTQVTVSSASHHHHHH"
experimental_value = 6

[[record]]
binder = "DR471(DR241-DR231) (bispecific antibody, Anti-hIL10Ra/hIL2Rg dual VHH with ASH6 handle; also called G3) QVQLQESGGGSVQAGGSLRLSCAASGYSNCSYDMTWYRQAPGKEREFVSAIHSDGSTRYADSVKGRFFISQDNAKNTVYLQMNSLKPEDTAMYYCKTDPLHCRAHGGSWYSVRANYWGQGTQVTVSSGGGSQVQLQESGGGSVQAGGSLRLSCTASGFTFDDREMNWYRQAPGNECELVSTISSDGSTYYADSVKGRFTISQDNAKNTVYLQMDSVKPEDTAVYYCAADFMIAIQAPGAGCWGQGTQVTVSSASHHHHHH"
experimental_value = 5


Form field: reported Surface Activity of DR437(DR235-DR233) (bispecific antibody, Anti-hIL10Ra/hIL2Rg dual VHH with ASH6 handle; also called D6) QVQLQESGGGSVQAGGSLRLSCAASRYLYSIDYMAWFRQSPGKEREPVAVIYTASGATFYPDSVKGRFTISQDNAKMTVYLQMNSLKSEDTAMYYCAAVRKTDSYLFDAQSFTYWGQGTQVTVSSGGGSQVQLQESGGGSVQAGGSLRLSCTASGFTFDDSDMGWYRQAPGNECELVSTISSDGSTYYADSVKGRFTISQDNAKNTVYLQMNSLKPEDTAVYYCAAEPRGYYSNYGGRRECNYWGQGTQVTVSSASHHHHHH 3
